- experimental system: T1, O16-bA
- T1 chain: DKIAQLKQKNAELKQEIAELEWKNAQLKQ
- procedure summary: two-hybrid library CCNG1;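 note: natural log of median RNA to DNA barcode read ratio; higher means stronger binding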
property name: interaction score

{"columns": ["binder", "numeric value"],
 "data": [
  ["DKNAQLKQENAELEQKIAELKWKIAQLKQ [O10-bA]", 0.945],
  ["DKNAQLKQKIAELKQKNAELKWEIAQLEQ [O13-bA]", -1.53],
  ["DEIAQLEQENAELEQKIAELKWENAQLEQ [O15-bA]", 2.52]
]}
